- assayed-system: T1, mfGITR.mmh (Macaca fasicularis)
- T1 construct: soluble monomeric construct; also called Macaca fasicularis (mf) GITR.mmh; cynomolgus GITR protein
- T1 chain: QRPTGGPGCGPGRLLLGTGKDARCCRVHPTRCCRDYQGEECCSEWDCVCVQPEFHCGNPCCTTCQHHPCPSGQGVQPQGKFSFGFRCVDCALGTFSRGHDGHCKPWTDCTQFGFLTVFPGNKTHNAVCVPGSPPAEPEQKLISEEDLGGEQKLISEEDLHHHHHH
- experiment: SPR 37C, mAb capture
measured-attribute: t½
Lab note: write values as number then unit, every time.

• H1H14491P (antibody, human IgG1, V domains shown, human IgG1 (H1H)) VH: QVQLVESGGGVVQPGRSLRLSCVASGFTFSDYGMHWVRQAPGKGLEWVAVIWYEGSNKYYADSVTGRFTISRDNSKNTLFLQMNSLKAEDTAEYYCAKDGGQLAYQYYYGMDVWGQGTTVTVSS VL: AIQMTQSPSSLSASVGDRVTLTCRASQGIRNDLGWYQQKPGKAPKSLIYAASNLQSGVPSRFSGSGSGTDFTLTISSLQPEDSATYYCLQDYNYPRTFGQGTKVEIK = 1.3 min

Kindly consider the entry below.
H4H14469P (antibody, human IgG4, V domains shown, human IgG4 (H4H)) VH: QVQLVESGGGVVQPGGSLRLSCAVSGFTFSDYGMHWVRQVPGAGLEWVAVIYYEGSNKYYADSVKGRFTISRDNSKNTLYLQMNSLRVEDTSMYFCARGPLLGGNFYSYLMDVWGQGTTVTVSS VL: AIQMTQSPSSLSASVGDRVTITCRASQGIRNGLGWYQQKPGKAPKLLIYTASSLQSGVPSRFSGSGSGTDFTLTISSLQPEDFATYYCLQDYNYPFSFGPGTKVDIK has a reported t½ of 4.7 min
